# tgt: Mitogen-activated protein kinase 14 (Homo sapiens, UniProt Q16539)
# Sequence (Q16539 whole entry): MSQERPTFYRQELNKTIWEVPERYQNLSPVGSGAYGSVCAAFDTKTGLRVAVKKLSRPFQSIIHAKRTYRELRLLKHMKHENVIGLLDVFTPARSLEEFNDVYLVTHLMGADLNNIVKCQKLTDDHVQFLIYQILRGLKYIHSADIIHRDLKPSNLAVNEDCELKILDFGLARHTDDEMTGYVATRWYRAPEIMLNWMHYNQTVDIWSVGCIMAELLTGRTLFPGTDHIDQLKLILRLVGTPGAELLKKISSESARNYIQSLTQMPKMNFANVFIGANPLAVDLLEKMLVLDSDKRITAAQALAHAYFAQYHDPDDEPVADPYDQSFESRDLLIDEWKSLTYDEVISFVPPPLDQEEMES
# protocol text: Inhibition of p38 alpha (unknown origin) at 10 uM using Ser/Thr 15 as substrate incubated for 1 hr in presence of ATP by Z'-Lyte assay relative to control
experimental readout: inhibition (%)

Take a look at these entries with their results.
| line notation | experimental value |
| --- | --- |
| O=S(=O)(NCCCNc1nccc(-c2[nH]c(-c3ccccc3)nc2-c2ccc(Cl)c(O)c2)n1)c1ccccc1 | 82.2 |
| O=S(=O)(NCCCNc1nccc(-c2[nH]c(-c3ccccc3)nc2-c2ccc(F)c(O)c2)n1)c1ccc(Cl)cc1 | 84.9 |
| COc1cc(-c2nc(-c3ccccc3)[nH]c2-c2ccnc(NCCCNS(=O)(=O)c3ccc(Br)cc3)n2)ccc1F | 73.4 |

P. O=S(=O)(NCCCNc1nccc(-c2[nH]c(-c3ccccc3)nc2-c2ccc(Cl)c(O)c2)n1)c1ccc(Cl)cc1
Q. COc1cc(-c2nc(-c3ccccc3)[nH]c2-c2ccnc(NCCCNS(=O)(=O)c3ccc(C(F)(F)F)cc3)n2)ccc1Cl
## Input Looking at recorded values for inhibition, does P or Q come in lower? Pick one; state its label.
## Output Q
(Q: 18.9%, P: 70.8%)

----------
# Test system: Serine/threonine-protein kinase B-raf (Homo sapiens), P15056 [V600E]
# Sequence (P15056 whole entry V600E): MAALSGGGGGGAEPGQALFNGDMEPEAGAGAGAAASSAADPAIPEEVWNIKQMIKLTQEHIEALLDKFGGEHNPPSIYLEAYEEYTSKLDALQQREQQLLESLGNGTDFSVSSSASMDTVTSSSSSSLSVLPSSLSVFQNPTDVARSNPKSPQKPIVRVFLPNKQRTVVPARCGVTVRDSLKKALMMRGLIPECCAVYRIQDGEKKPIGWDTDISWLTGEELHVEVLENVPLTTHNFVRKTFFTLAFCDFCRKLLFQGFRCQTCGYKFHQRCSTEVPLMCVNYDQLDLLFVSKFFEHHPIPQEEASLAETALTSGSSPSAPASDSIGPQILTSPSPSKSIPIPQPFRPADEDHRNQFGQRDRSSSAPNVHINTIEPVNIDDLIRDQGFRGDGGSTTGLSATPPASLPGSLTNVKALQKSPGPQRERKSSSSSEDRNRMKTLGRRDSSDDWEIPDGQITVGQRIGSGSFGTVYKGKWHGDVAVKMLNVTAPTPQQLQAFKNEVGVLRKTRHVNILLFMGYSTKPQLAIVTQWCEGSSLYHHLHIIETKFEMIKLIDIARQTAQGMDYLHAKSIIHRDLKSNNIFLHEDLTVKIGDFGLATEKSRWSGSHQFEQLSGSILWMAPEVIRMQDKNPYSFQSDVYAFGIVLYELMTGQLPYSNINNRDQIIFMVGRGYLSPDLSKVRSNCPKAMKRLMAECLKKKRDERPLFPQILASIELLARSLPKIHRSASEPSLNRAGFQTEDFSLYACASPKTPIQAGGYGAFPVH
# protocol text: Inhibition of BRAF V600E mutant (unknown origin) at 10 uM using Ser/Thr 03 as substrate after 1 hr in presence of ATP by Z'-LYTE assay relative to control
experimental readout: inhibition (%)

| line notation | tgt | unit annotation | experimental value |
| --- | --- | --- | --- |
| COc1cc(-c2nc(-c3ccccc3)[nH]c2-c2ccnc(NCCCNS(=O)(=O)c3ccc(Cl)cc3)n2)ccc1F | Serine/threonine-protein kinase B-raf (Homo sapiens), P15056 [V600E] | % | 79.2 |
| COc1cc(-c2nc(-c3ccccc3)[nH]c2-c2ccnc(NCCCNS(=O)(=O)c3cccc4ccccc34)n2)ccc1Cl | Serine/threonine-protein kinase B-raf (Homo sapiens), P15056 [V600E] | % | 90 |
| COc1cc(-c2nc(-c3ccccc3)[nH]c2-c2ccnc(NCCCNS(=O)(=O)c3ccc(F)cc3)n2)ccc1Cl | Serine/threonine-protein kinase B-raf (Homo sapiens), P15056 [V600E] | % | 81 |
| O=S(=O)(NCCCNc1nccc(-c2[nH]c(-c3ccccc3)nc2-c2ccc(Cl)c(O)c2)n1)c1ccccc1 | Serine/threonine-protein kinase B-raf (Homo sapiens), P15056 [V600E] | % | 99.4 |
| COc1cc(-c2nc(-c3ccccc3)[nH]c2-c2ccnc(NCCCNS(=O)(=O)c3ccc(Br)cc3)n2)ccc1F | Serine/threonine-protein kinase B-raf (Homo sapiens), P15056 [V600E] | % | 81.5 |

1. O=S(=O)(NCCCNc1nccc(-c2[nH]c(-c3ccccc3)nc2-c2ccc(F)c(O)c2)n1)c1cccc(F)c1
2. COc1cc(-c2nc(-c3ccccc3)[nH]c2-c2ccnc(NCCCNS(=O)(=O)c3ccc(C(F)(F)F)cc3)n2)ccc1Cl
## Input Looking at recorded values for inhibition, does 1 or 2 come in lower? Pick one; state its label.
## Output 2

----------
# Test system: LOX IMVI
# protocol text: cells
# Type: functional, cell-based
# run conditions: Homo sapiens, 24 h
# Description: Cytotoxicity against human LOX IMVI cells assessed as reduction in cell viability incubated for 24 hrs by MTT assay
experimental readout: IC50 (µM)

Take a look at these entries with their results.
| line notation | IC50 [µM] |
| --- | --- |
| COc1cc(-c2nc(-c3ccccc3)[nH]c2-c2ccnc(NCCCNS(=O)(=O)c3ccc(Br)cc3)n2)ccc1F | 33.9 |
| COc1cc(-c2nc(-c3ccccc3)[nH]c2-c2ccnc(NCCCNS(=O)(=O)c3ccc(C)cc3)n2)ccc1F | 2.59 |
| O=S(=O)(NCCCNc1nccc(-c2[nH]c(-c3ccccc3)nc2-c2ccc(Cl)c(O)c2)n1)c1ccccc1 | 2.63 |

P. O=S(=O)(NCCCNc1nccc(-c2[nH]c(-c3ccccc3)nc2-c2ccc(Cl)c(O)c2)n1)c1ccc(O)cc1
Q. O=S(=O)(NCCCNc1nccc(-c2[nH]c(-c3ccccc3)nc2-c2ccc(Cl)c(O)c2)n1)c1cccc2ccccc12
## Input Would you let me know which has the greater IC50 value, P or Q ? Pick one; state its label.
## Output P
(P: 36.8 µM, Q: 7.72 µM)

I. COc1cc(-c2nc(-c3ccccc3)[nH]c2-c2ccnc(NCCCNS(=O)(=O)c3ccc(C(F)(F)F)cc3)n2)ccc1Cl
II. COc1cc(-c2nc(-c3ccccc3)[nH]c2-c2ccnc(NCCCNS(=O)(=O)c3ccc(Br)cc3)n2)ccc1Cl
III. O=S(=O)(NCCCNc1nccc(-c2[nH]c(-c3ccccc3)nc2-c2ccc(F)c(O)c2)n1)c1cccc(F)c1
## Input Arrange the 3 entries by IC50 so the values rise. Give the labels in the order requested.
## Output I, III, II
(I: 1.78 µM, III: 7.89 µM, II: 23.7 µM)

----------
# System: LOX IMVI
# protocol text: cells
# Assay type: functional, cell-based
# run conditions: Homo sapiens, 24 h
experimental readout: IC50 (µM)

| line notation | unit annotation | IC50 |
| --- | --- | --- |
| COc1cc(-c2nc(-c3ccccc3)[nH]c2-c2ccnc(NCCCNS(=O)(=O)c3cccc(F)c3)n2)ccc1F | µM | 0.9 |

A. O=S(=O)(NCCCNc1nccc(-c2[nH]c(-c3ccccc3)nc2-c2ccc(Cl)c(O)c2)n1)c1ccc(F)cc1
B. O=S(=O)(NCCCNc1nccc(-c2[nH]c(-c3ccccc3)nc2-c2ccc(Cl)c(O)c2)n1)c1ccc(Br)cc1
## Input Would you let me know which has the greater IC50 value, A or B ? Pick one; state its label.
## Output B

----------
# tgt: Mitogen-activated protein kinase 14 (Homo sapiens, UniProt Q16539)
# protocol text: Inhibition of p38 alpha (unknown origin) using Ser/Thr 15 as substrate incubated for 1 hr in presence of ATP by Z'-Lyte assay
pIC50: −log10 of the molar value.
experimental readout: pIC50

| line notation | experimental value |
| --- | --- |
| O=S(=O)(NCCCNc1nccc(-c2[nH]c(-c3ccccc3)nc2-c2ccc(F)c(O)c2)n1)c1ccccc1 | 6.68 |
| Cc1ccc(S(=O)(=O)NCCCNc2nccc(-c3[nH]c(-c4ccccc4)nc3-c3ccc(F)c(O)c3)n2)cc1 | 6.70 |

1. O=S(=O)(NCCCNc1nccc(-c2[nH]c(-c3ccccc3)nc2-c2ccc(F)c(O)c2)n1)c1ccc(Br)cc1
2. O=S(=O)(NCCCNc1nccc(-c2[nH]c(-c3ccccc3)nc2-c2ccc(F)c(O)c2)n1)c1cccc(F)c1
3. O=S(=O)(NCCCNc1nccc(-c2[nH]c(-c3ccccc3)nc2-c2ccc(F)c(O)c2)n1)c1ccc(O)cc1
## Input Order the items by recorded pIC50; the first position goes to the largest value. Give the labels in the order requested.
## Output 3, 2, 1

----------
# tgt: Mitogen-activated protein kinase 14 (Homo sapiens, UniProt Q16539)
# protocol text: Inhibition of p38 alpha (unknown origin) at 10 uM using Ser/Thr 15 as substrate incubated for 1 hr in presence of ATP by Z'-Lyte assay relative to control
experimental readout: inhibition (%)

P. Cc1ccc(S(=O)(=O)NCCCNc2nccc(-c3[nH]c(-c4ccccc4)nc3-c3ccc(Cl)c(O)c3)n2)cc1
Q. COc1cc(-c2nc(-c3ccccc3)[nH]c2-c2ccnc(NCCCNS(=O)(=O)c3cccc4ccccc34)n2)ccc1F
R. COc1cc(-c2nc(-c3ccccc3)[nH]c2-c2ccnc(NCCCNS(=O)(=O)c3ccc(Br)cc3)n2)ccc1Cl
## Input Reorder: inhibition, max to min. Give the labels in the order requested.
## Output P, Q, R
(P: 70.8%, Q: 44.4%, R: 30%)

I. O=S(=O)(NCCCNc1nccc(-c2[nH]c(-c3ccccc3)nc2-c2ccc(Cl)c(O)c2)n1)c1cccc2ccccc12
II. O=S(=O)(NCCCNc1nccc(-c2[nH]c(-c3ccccc3)nc2-c2ccc(F)c(O)c2)n1)c1ccc(Br)cc1
## Input Looking at recorded values for inhibition, does I or II come in lower? Pick one; state its label.
## Output I
(I: 51.1%, II: 84.8%)

I. COc1ccc(S(=O)(=O)NCCCNc2nccc(-c3[nH]c(-c4ccccc4)nc3-c3ccc(F)c(OC)c3)n2)cc1
II. COc1cc(-c2nc(-c3ccccc3)[nH]c2-c2ccnc(NCCCNS(=O)(=O)c3ccc(Cl)cc3)n2)ccc1Cl
## Input Would you let me know which has the greater inhibition value, I or II ? Pick one; state its label.
## Output I

----------
# Tested on: Serine/threonine-protein kinase B-raf (Homo sapiens), P15056 [V600E]
# protocol text: Inhibition of BRAF V600E mutant (unknown origin) at 10 uM using Ser/Thr 03 as substrate after 1 hr in presence of ATP by Z'-LYTE assay relative to control
experimental readout: inhibition (%)

Take a look at these entries with their results.
| line notation | experimental value |
| --- | --- |
| O=S(=O)(NCCCNc1nccc(-c2[nH]c(-c3ccccc3)nc2-c2ccc(F)c(O)c2)n1)c1ccccc1 | 98.4 |
| Cc1ccc(S(=O)(=O)NCCCNc2nccc(-c3[nH]c(-c4ccccc4)nc3-c3ccc(F)c(O)c3)n2)cc1 | 101 |
| O=S(=O)(NCCCNc1nccc(-c2[nH]c(-c3ccccc3)nc2-c2ccc(F)c(O)c2)n1)c1ccc(F)cc1 | 97 |

I. O=S(=O)(NCCCNc1nccc(-c2[nH]c(-c3ccccc3)nc2-c2ccc(F)c(O)c2)n1)c1ccc(C(F)(F)F)cc1
II. COc1cc(-c2nc(-c3ccccc3)[nH]c2-c2ccnc(NCCCNS(=O)(=O)c3ccc(C(F)(F)F)cc3)n2)ccc1F
## Input Would you let me know which has the greater inhibition value, I or II ? Pick one; state its label.
## Output I
